# experiment notes: Cytotoxicity against African green monkey Vero cells assessed as cell viability at 100 uM after 72 hrs by MTT assay relative to control
# Assay type: cell-based
# particulars: chlorocebus sabaeus, read-out: Activity
Define the label as rule met when viability at 72 h, 100 µM is strictly less than 90% and as rule not met in all remaining cases.

>  <compound>
CCn1cc(C(=O)O)c(=O)c2cc(OC)c3nn(C)nc3c21

>  <classification>
rule not met

$$$$
>  <compound>
CCOc1c(C(=O)O)cnc2c1cc(OC)c1nnn(C)c12

>  <classification>
rule met

$$$$
>  <compound>
O=C(O)c1cn(C2CC2)c2cc(N3CCNCC3)c(F)cc2c1=O [CIPROFLOXACIN]

>  <classification>
rule not met

$$$$
>  <compound>
CCOC(=O)c1cnc2c(cc(OC)c3nnn(C)c32)c1OCC

>  <classification>
rule met

$$$$
>  <compound>
CCOC(=O)c1cn(CC)c2c(cc(OCC)c3c2nnn3C)c1=O

>  <classification>
rule not met

$$$$
>  <compound>
COc1c(C(=O)O)cnc2c1cc(OC)c1nnn(C)c12

>  <classification>
rule met

$$$$

###

# experiment notes: Cytotoxicity against African green monkey Vero cells assessed as cell viability at 100 uM after 72 hrs by MTT assay relative to control
# Format: cell-based
# particulars: chlorocebus sabaeus, read-out: Activity
Catalogue of viability at 72 h, 100 µM values
property: viability at 72 h, 100 µM

>  <smi>
CCOc1cc2c(=O)c(C(=O)O)cn(CC)c2c2nnn(C)c12

>  <measured value>
92.1%

$$$$
>  <smi>
CCOC(=O)c1cn(C)c2c(cc(OC)c3c2nnn3C)c1=O

>  <measured value>
92%

$$$$
>  <smi>
Cn1cc(C(=O)O)c(=O)c2cc([N+](=O)[O-])c3c(nnn3C)c21

>  <measured value>
88.8%

$$$$
>  <smi>
COc1cc2c(=O)c(C(=O)O)cn(C)c2c2nn(C)nc12

>  <measured value>
89.5%

$$$$
>  <smi>
CCSc1cc2c(=O)c(C(=O)O)cn(C)c2c2nnn(C)c12

>  <measured value>
87.7%

$$$$
